tested on: SF-295 CNS; assay: NCI tumour cell line growth inhibition, 48 h
Observed property: TGI (µM)

>  <Compound>
CSc1nc2c(nc(C)c(=O)n2C2OCC(OC(C)=O)C(OC(C)=O)C2OC(C)=O)c(=O)[nH]1 (centres undefined)

>  <Observed property>
TGI

>  <Reading qualifier>
>

>  <Result>
100

$$$$
>  <Compound>
NC(N)=NCCN=C(N)N

>  <Observed property>
TGI

>  <Reading qualifier>
>

>  <Result>
100

$$$$
>  <Compound>
NC(=O)C(N)Cc1ccc(O)cn1 (centres undefined)

>  <Observed property>
TGI

>  <Reading qualifier>
>

>  <Result>
100

$$$$
>  <Compound>
CN(c1ccc(Cl)cc1)S(=O)(=O)c1ccc([N+](=O)[O-])cc1

>  <Observed property>
TGI

>  <Reading qualifier>
>

>  <Result>
100

$$$$
>  <Compound>
COc1ncnc(C2CC2)c1-c1ncc2cnn(Cc3ccc(-c4nc(C(F)(F)F)cn4C(C)C)cc3)c2n1

>  <Observed property>
TGI

>  <Reading qualifier>
=

>  <Result>
65.1

$$$$
>  <Compound>
CN(C)Cc1cc(C(=O)/C=C/c2ccc(Cl)cc2)cc(CN(C)C)c1O

>  <Observed property>
TGI

>  <Reading qualifier>
=

>  <Result>
26

$$$$
>  <Compound>
O=[N+]([O-])c1ccc(C=C2C(Cl)=C(Cl)C(Cl)=C2Cl)cc1

>  <Observed property>
TGI

>  <Reading qualifier>
=

>  <Result>
76.6

$$$$
>  <Compound>
CC1=CC(/C=C(\C)CCCc2ccoc2)C2(OC(=O)C(C)=C2O)[C@H]2C1CC[C@@H]2C (some centres undefined)

>  <Observed property>
TGI

>  <Reading qualifier>
=

>  <Result>
56.2

$$$$
>  <Compound>
CCN1CCN(c2ccc(Nc3cc(N(C)C(=O)Nc4c(Cl)c(OC)cc(OC)c4Cl)ncn3)cc2)CC1

>  <Observed property>
TGI

>  <Reading qualifier>
=

>  <Result>
25.9

$$$$
>  <Compound>
CC1=Nc2ccccc2C1C(Cc1ccccc1N)c1c(C)[nH]c2ccccc12 (centres undefined)

>  <Observed property>
TGI

>  <Reading qualifier>
=

>  <Result>
25.8

$$$$
>  <Compound>
S=C(NCc1ccccc1)c1nc[nH]c1C(=S)NCc1ccccc1

>  <Observed property>
TGI

>  <Reading qualifier>
=

>  <Result>
17.6

$$$$
>  <Compound>
COc1ccc(C(=O)Sc2c(-c3ccccc3)c(=O)n(-c3ccccc3)c(=S)n2-c2ccccc2)cc1

>  <Observed property>
TGI

>  <Reading qualifier>
>

>  <Result>
100

$$$$
>  <Compound>
O=c1nc2occc2cn1C1CC(O)C(CO)O1 (centres undefined)

>  <Observed property>
TGI

>  <Reading qualifier>
>

>  <Result>
100

$$$$
>  <Compound>
O/N=C1/COC(C(F)(F)F)(C(F)(F)F)C1

>  <Observed property>
TGI

>  <Reading qualifier>
>

>  <Result>
100

$$$$
>  <Compound>
Oc1ccc2ccccc2c1/C=C/c1ccc2c(Br)cc(Br)c(O)c2n1

>  <Observed property>
TGI

>  <Reading qualifier>
=

>  <Result>
18.5

$$$$
>  <Compound>
CC(C)(C)C(=O)OCOP(=O)(OCOC(=O)C(C)(C)C)C1CCCN(O)C1=O (centres undefined)

>  <Observed property>
TGI

>  <Reading qualifier>
>

>  <Result>
100

$$$$
>  <Compound>
O=C1NC(=Nc2ccccc2)S/C1=C\c1ccc2ncccc2c1

>  <Observed property>
TGI

>  <Reading qualifier>
>

>  <Result>
7.02

$$$$
>  <Compound>
COc1ccc(/C=C(/C(=O)c2ccc(Cl)cc2)N2C=CC=CC2=C(C#N)C#N)cc1OC

>  <Observed property>
TGI

>  <Reading qualifier>
>

>  <Result>
85.3

$$$$
>  <Compound>
O=[N+]([O-])c1ccc(/C=N/n2c(CO)nc3ccccc32)o1

>  <Observed property>
TGI

>  <Reading qualifier>
=

>  <Result>
25.2

$$$$

Hey, just so you know, these numbers are from PubChem BioAssay (NCI).
